Endpoint summary: IC50, system: JNK3 (Homo sapiens, UniProt P53779), multiple sources combined.
endpoint label: IC50 (nM)

Solved entries:
Cn1cc(-c2c[nH]c3ncc([C@H]4CC[C@H](N5CCC(F)(F)C5)CC4)cc23)cn1: 93
O=C(Nc1ccc2[nH]nc(-c3ccc4ccccc4c3)c2c1)C1CCNCC1: 55
C[C@H]1COCCN1[C@H]1CC[C@@H](c2cnc3[nH]cc(-c4cnn(C)c4)c3c2)CC1: 138

A. CCCN(CCO)[C@H]1CC[C@@H](c2cnc3[nH]cc(-c4cnn(C)c4)c3c2)CC1
B. COc1ccc(CSC[C@@H]2CCc3nc(-c4ccc(F)cc4)c(-c4ccnc(NC5CCC5)n4)n32)cc1
q: Look at A and B . Which one has the lower recorded IC50 number? Choose, then provide that item's label.
a: B

1. O=C(c1nc(-c2c[nH]c3ncc([C@H]4CC[C@@H](N5CCOCC5)CC4)cc23)cs1)N1CCCCC1
2. CCNc1nccc(-c2c(-c3ccc(F)cc3)nc3n2[C@H](COc2ccc4cccc([N+](=O)[O-])c4n2)CC3)n1
q: // compare measured IC50, left 1 , right 2 , return larger // caller expects the label of the chosen entry
a: 1
(1: 229 nM, 2: 86 nM)
